B1: EPB41L3 (parent)
chain: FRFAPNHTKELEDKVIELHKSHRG

Variants of: B1
run_description: protein stability index of a GFP-peptide fusion (GPS, HEK-293T) (PSI 1-6); higher = more stable;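 also: lentivirally expressed fusions sorted by FACS into six bins by GFP to DsRed ratio, PSI derived from sequencing read proportions per bin multiplied by bin number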
experimental_conditions: c terminus: a fixed tail appended
readout_kind: protein stability index

Worked examples, 8 variants total:
>  <mutations>
N6C

>  <result>
1.97

$$$$
>  <mutations>
G24R

>  <result>
2.05

$$$$
>  <mutations>
E10S

>  <result>
2.07

$$$$
>  <mutations>
K9Y

>  <result>
1.99

$$$$
>  <mutations>
F3V

>  <result>
4.42

$$$$
>  <mutations>
D13C

>  <result>
2.65

$$$$
>  <mutations>
F1T

>  <result>
4.12

$$$$
>  <mutations>
L11C

>  <result>
2.18

$$$$

// sample K20Q , its protein stability index was 1.29

// sample G24E , its protein stability index was 2.34

// sample S21R , its protein stability index was 2.1

// sample E17F , its protein stability index was 2.34

// sample F3P , its protein stability index was 4.25
